Where do the numbers come from? From the supplement of paper PMC11219838.

test system: Caenorhabditis elegans L1 (N2); experiment: survival and reproduction score of C. elegans L1 (0: 0-10 living worms, 1: 11-20, 2: 21-50, 3: >50, 4: overgrown) (score 0-4); higher = more worms, less nematicidal, active = 1 or less; extreme values may be limits of the assay; conditions: 60 µM; 6 days; temperature: 20 °C
Hi! Could you answer with just one of these? true for active, false for inactive

In: Write down the call the test reported for this compound. Item: COc1ccc(-c2noc(COc3ccc(C4CCCCC4)cc3)n2)cc1
Out: false

In: Write down the call the test reported for this compound. Item: O=C(CSc1nnc(-c2ccccc2)o1)Nc1cc(C(F)(F)F)ccc1Cl
Out: false

In: Write down the call the test reported for this compound. Item: Cc1cccc(-c2noc(C3CCCCC3)n2)c1
Out: false

In: Write down the call the test reported for this compound. Item: CC(Oc1ccc(C(C)(C)C)cc1)c1nc(-c2ccncc2)no1 (stereo unspecified)
Out: false

In: Write down the call the test reported for this compound. Item: COc1ccc(-c2nnc(SCC(=O)Nc3ccc(Cl)cc3Cl)o2)cc1
Out: false

In: Write down the call the test reported for this compound. Item: O=C(CSc1nnc(-c2ccccc2Cl)o1)Nc1ccc(Br)cn1
Out: false

In: Write down the call the test reported for this compound. Item: CC(C)C(=O)Nc1ccccc1-c1nc(-c2cccnc2)no1
Out: true

In: Write down the call the test reported for this compound. Item: CC(=O)Nc1ccc(NC(=O)c2ccccc2-c2nc(-c3ccccc3Cl)no2)cc1
Out: false

In: Write down the call the test reported for this compound. Item: COc1nc(C)ccc1-c1noc(-c2ccccc2Br)n1
Out: false

In: Write down the call the test reported for this compound. Item: Cc1cccc(-c2nc(-c3ccc4c(c3)OCO4)no2)c1
Out: false

In: Write down the call the test reported for this compound. Item: CCn1c(SCc2nc(-c3ccccc3)no2)nc2ccccc21
Out: false

In: Write down the call the test reported for this compound. Item: COc1ccccc1-c1nnc(SCc2ccccc2C)o1
Out: false

In: Write down the call the test reported for this compound. Item: Cc1ccccc1-c1nnc(SCc2ccccc2Cl)o1
Out: false

In: Write down the call the test reported for this compound. Item: O=C(Nc1ccc(-c2noc(-c3ccc(F)cc3)n2)cc1)c1ccc(Br)o1
Out: true

In: Write down the call the test reported for this compound. Item: Cc1ccccc1CSc1nnc(-c2ccncc2)o1
Out: false

In: Write down the call the test reported for this compound. Item: COc1ccc(-c2nnc(SCc3csc(N)n3)o2)cc1
Out: false

In: Write down the call the test reported for this compound. Item: O=C(CSc1nnc(-c2ccco2)o1)Nc1ccc(Br)cn1
Out: false

In: Write down the call the test reported for this compound. Item: COc1nc(C)ccc1-c1noc(-c2ccccc2C)n1
Out: false

In: Write down the call the test reported for this compound. Item: Cc1ccc(-c2nnc(SCC(=O)NCCc3ccccc3)o2)cc1
Out: false

In: Write down the call the test reported for this compound. Item: COc1ccc(Cl)cc1-c1nnc(SCC(=O)Nc2nccs2)o1
Out: false

In: Write down the call the test reported for this compound. Item: CCOC(=O)c1sc(NC(=O)CSc2nnc(-c3ccc(Cl)cc3)o2)c(C(=O)OCC)c1C
Out: false

In: Write down the call the test reported for this compound. Item: Cc1ccc(CSc2nnc(-c3ccco3)o2)c(C)c1
Out: true

In: Write down the call the test reported for this compound. Item: COc1ccccc1-c1nc(-c2ccc(Cl)cc2)no1
Out: false

In: Write down the call the test reported for this compound. Item: Cc1cc(OCc2nc(-c3ccccc3)no2)ccc1Br
Out: false

In: Write down the call the test reported for this compound. Item: Cc1ccc(C(=O)CSc2nnc(-c3ccco3)o2)o1
Out: false

In: Write down the call the test reported for this compound. Item: O=C(CSc1nnc(-c2ccco2)o1)Nc1cccc(Cl)c1Cl
Out: false

In: Write down the call the test reported for this compound. Item: Cc1ccc(-c2nnc(SCC(=O)Nc3ccc(F)cc3)o2)cc1
Out: false

In: Write down the call the test reported for this compound. Item: O=C(CSc1nnc(-c2ccc(Br)cc2)o1)OCc1ccccc1
Out: false

In: Write down the call the test reported for this compound. Item: Cc1c(C(=O)CSc2nnc(-c3ccccc3)o2)c2ccccc2n1C
Out: false

In: Write down the call the test reported for this compound. Item: CN(C)C(=O)c1ccccc1-c1nc(-c2ccc(Cl)cc2)no1
Out: false

In: Write down the call the test reported for this compound. Item: O=C(CSc1nnc(-c2cccc(Br)c2)o1)Nc1ccccn1
Out: false

In: Write down the call the test reported for this compound. Item: Clc1ccc(-c2nnc(SCc3ccccc3)o2)c(Cl)c1
Out: false

In: Write down the call the test reported for this compound. Item: CNC(=O)O/N=C(\SC)C(=O)N(C)C
Out: false

In: Write down the call the test reported for this compound. Item: CCCc1nnc(SCc2nnc(-c3ccccc3)o2)o1
Out: false

In: Write down the call the test reported for this compound. Item: CC(Sc1nnc(-c2ccccc2)o1)C(=O)Nc1nccs1 (stereo unspecified)
Out: false

In: Write down the call the test reported for this compound. Item: Cc1ccccc1-c1noc(-c2ccccc2OCC(N)=O)n1
Out: false

In: Write down the call the test reported for this compound. Item: Brc1cccc(-c2nc(-c3ccncc3)no2)c1
Out: true

In: Write down the call the test reported for this compound. Item: Cc1cc(OCc2nc(-c3ccccc3)no2)cc(C)c1Cl
Out: false

In: Write down the call the test reported for this compound. Item: COc1ccccc1-c1nnc(SCC(=O)OCc2ccccc2)o1
Out: false

In: Write down the call the test reported for this compound. Item: Cc1ccc(-c2nnc(SCC(=O)Nc3ccc(Br)c(C)c3C)o2)cc1
Out: false

In: Write down the call the test reported for this compound. Item: COc1ccc(NC(=O)c2ccccc2-c2nc(-c3ccccc3C)no2)cc1
Out: false
